System: Pseudomonas aeruginosa ATCC 27853
Method summary: MIC by standard broth microdilution (CLSI), Pseudomonas aeruginosa
Format: cell-based
Measurement parameters: ATCC27853, PA ATCC 27853, iron-depleted CAMHB (value in parentheses), read-out: MIC in ID-CAMHB medium
Here the recorded MIC is given for each entry.

Molecule	Target desc	Unit symbol	MIC
CC(C)(O/N=C(\C(=O)N[C@@H]1C(=O)N2C(C(=O)O)=C(C=NOCc3cc(=O)c(O)cn3O)CS[C@H]12)c1nsc(N)n1)C(=O)O	Pseudomonas aeruginosa ATCC 27853	µg/mL	0.12
CC(C)(O/N=C(\C(=O)NC1C(=O)N2C(C(=O)O)=C(C=NO[C@H]3CCN(C(=O)c4ccc(O)c(O)c4Cl)C3)CSC12)c1csc(N)n1)C(=O)O (stereo partly drawn)	Pseudomonas aeruginosa ATCC 27853	µg/mL	0.25
Nc1nc(/C(=N/OCF)C(=O)NC2C(=O)N3C(C(=O)O)=C(C=NOCCNC(=O)c4ccc(O)c(O)c4Cl)CSC23)ns1 (stereo not drawn)	Pseudomonas aeruginosa ATCC 27853	µg/mL	1
CC(C)(O/N=C(\C(=O)NC1C(=O)N2C(C(=O)O)=C(C=NOCCNC(=O)c3ccc(O)c(O)c3Cl)CSC12)c1nsc(N)n1)C(=O)O (stereo not drawn)	Pseudomonas aeruginosa ATCC 27853	µg/mL	0.5
CC(C)(O/N=C(\C(=O)N[C@@H]1C(=O)N2C(C(=O)[O-])=C(C[N+]3(CCNC(=O)c4ccc(O)c(O)c4Cl)CCCC3)CS[C@H]12)c1csc(N)n1)C(=O)O [Cefiderocol, cefiderocol, reference compound]	Pseudomonas aeruginosa ATCC 27853	µg/mL	0.5
CC(C)(O/N=C(\C(=O)N[C@@H]1C(=O)N2C(C(=O)O)=C(C=NOCc3cc(=O)c(O)cn3O)CS[C@H]12)c1csc(N)n1)C(=O)O	Pseudomonas aeruginosa ATCC 27853	µg/mL	0.25
Nc1nc(/C(=N/OCF)C(=O)N[C@@H]2C(=O)N3C(C(=O)O)=C(C=NOCc4cc(=O)c(O)cn4O)CS[C@H]23)ns1	Pseudomonas aeruginosa ATCC 27853	µg/mL	0.5
CC(C)(O/N=C(\C(=O)NC1C(=O)N2C(C(=O)O)=C(C=NOCCNC(=O)c3ccc(O)c(O)c3Cl)CSC12)c1csc(N)n1)C(=O)O (stereo not drawn)	Pseudomonas aeruginosa ATCC 27853	µg/mL	0.5
CC(C)(O/N=C(\C(=O)NC1C(=O)N2C(C(=O)O)=C(C=NO[C@H]3C[C@H](NC(=O)c4ccc(O)c(O)c4Cl)C3)CSC12)c1csc(N)n1)C(=O)O (relative stereo)	Pseudomonas aeruginosa ATCC 27853	µg/mL	1

====

Each record here notes measured MIC.
Test system: Pseudomonas aeruginosa ATCC 27853
Method summary: MIC by standard broth microdilution (CLSI), Pseudomonas aeruginosa
Format: cell-based
Measurement parameters: ATCC27853, PA ATCC 27853, cation-adjusted Mueller Hinton broth (CAMHB), read-out: MIC in CAMHB medium

Molecule	MIC [µg/mL]
Nc1nc(/C(=N/OCF)C(=O)NC2C(=O)N3C(C(=O)O)=C(C=NOCCNC(=O)c4ccc(O)c(O)c4Cl)CSC23)ns1 (centres unmarked)	4
CC(C)(O/N=C(\C(=O)NC1C(=O)N2C(C(=O)O)=C(C=NOCCNC(=O)c3ccc(O)c(O)c3Cl)CSC12)c1csc(N)n1)C(=O)O (centres unmarked)	2
Cn1c(N)c(NC(=O)NCCN)c[n+]1CC1=C(C(=O)O)N2C(=O)[C@@H](NC(=O)/C(=N\OC(C)(C)C(=O)[O-])c3nsc(N)n3)[C@H]2SC1 [Ceftolozane, reference compound]	0.5
CC(C)(O/N=C(\C(=O)N[C@@H]1C(=O)N2C(C(=O)[O-])=C(C[N+]3(CCNC(=O)c4ccc(O)c(O)c4Cl)CCCC3)CS[C@H]12)c1csc(N)n1)C(=O)O [Cefiderocol, cefiderocol, reference compound]	1
CC(C)(O/N=C(\C(=O)NC1C(=O)N2C(C(=O)O)=C(C=NO[C@H]3C[C@H](NC(=O)c4ccc(O)c(O)c4Cl)C3)CSC12)c1csc(N)n1)C(=O)O (relative stereo)	2
CC(C)(O/N=C(\C(=O)N[C@@H]1C(=O)N2C(C(=O)[O-])=C(C[n+]3ccccc3)CS[C@H]12)c1csc(N)n1)C(=O)O [Ceftazidime, reference compound]	2
CC(C)(O/N=C(\C(=O)NC1C(=O)N2C(C(=O)O)=C(C=NO[C@H]3CCN(C(=O)c4ccc(O)c(O)c4Cl)C3)CSC12)c1csc(N)n1)C(=O)O (some centres unmarked)	1
CC(C)(O/N=C(\C(=O)NC1C(=O)N2C(C(=O)O)=C(C=NOCCNC(=O)c3ccc(O)c(O)c3Cl)CSC12)c1nsc(N)n1)C(=O)O (centres unmarked)	2
